# Target or system: human serum albumin (HSA) (Homo sapiens)
# Sequence (P02768 25-609): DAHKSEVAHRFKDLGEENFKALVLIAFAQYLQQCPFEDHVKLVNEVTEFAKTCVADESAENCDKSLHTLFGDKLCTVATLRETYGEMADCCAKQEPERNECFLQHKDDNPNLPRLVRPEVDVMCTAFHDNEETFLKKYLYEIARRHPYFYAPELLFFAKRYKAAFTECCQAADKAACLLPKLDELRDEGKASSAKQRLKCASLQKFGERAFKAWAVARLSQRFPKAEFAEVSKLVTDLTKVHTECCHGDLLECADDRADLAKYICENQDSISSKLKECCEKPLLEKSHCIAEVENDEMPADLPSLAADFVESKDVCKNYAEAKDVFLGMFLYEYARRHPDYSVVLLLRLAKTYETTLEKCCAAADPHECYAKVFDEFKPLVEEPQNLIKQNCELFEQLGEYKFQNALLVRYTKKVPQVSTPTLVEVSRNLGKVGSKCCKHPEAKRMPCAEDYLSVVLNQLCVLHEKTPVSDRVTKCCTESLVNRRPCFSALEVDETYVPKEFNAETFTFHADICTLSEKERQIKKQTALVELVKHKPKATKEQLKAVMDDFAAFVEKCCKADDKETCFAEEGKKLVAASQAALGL
# Test description: frontal analysis, high-performance affinity chromatography on immobilized HSA
# Assay type: binding
pKd: −log10 of the molar value.
Items are presented alongside their recorded pKd.
Property label: pKd

- Chemical smiles: "Cc1c[nH]c2ccccc12"
  Recorded value: 4.72
- Chemical smiles: "O=C(O)CCc1c[nH]c2ccccc12"
  Recorded value: 5.04
- Chemical smiles: "CC(=O)c1c[nH]c2ccccc12"
  Recorded value: 4.89
- Chemical smiles: "OCc1c[nH]c2ccccc12"
  Recorded value: 5.08
- Chemical smiles: "O=C(O)CCCc1c[nH]c2ccccc12"
  Recorded value: 5.99
